- System: biotinyl-Val-oxazolone
- protocol.notes: self-aminoacylation, catalytic enhancement (BVO) (fold over background); higher = more active; k-Seq, kA / k0A0; sequences stand for … in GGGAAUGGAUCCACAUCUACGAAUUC…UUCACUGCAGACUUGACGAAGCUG
Variants at the floor of the assay were thinned out.
observable: self-aminoacylation
// return a plain number; no unit text

Study these solved cases before continuing.
[
  {
    "seq.text": "AAGUUUGCAAAUAGUCGCAUG [Fam3.1 aminoacylation ribozyme variant]",
    "self-aminoacylation": 0.978
  },
  {
    "seq.text": "AUUCACCUAGCUCAUCGAGUG [Fam2.2 aminoacylation ribozyme variant]",
    "self-aminoacylation": 0.791
  },
  {
    "seq.text": "GUUACCCUGGUCAUCGAGUGC [Fam2.1 aminoacylation ribozyme variant]",
    "self-aminoacylation": 4.94
  },
  {
    "seq.text": "UUACUUCAAAAAAUCGGUCUG [Fam1A.1 aminoacylation ribozyme variant]",
    "self-aminoacylation": 0.984
  },
  {
    "seq.text": "CGACACUUCAAGCAAUCUGUC [Fam1B.1 aminoacylation ribozyme variant]",
    "self-aminoacylation": 0.51
  },
  {
    "seq.text": "CCACACUUGAAGCAAUCGGUC [Fam1B.1 aminoacylation ribozyme variant]",
    "self-aminoacylation": 0.926
  },
  {
    "seq.text": "AUUCACCUGAGUCAUCGGGUG [Fam2.2 aminoacylation ribozyme variant]",
    "self-aminoacylation": 5.03
  },
  {
    "seq.text": "AGUACCCUGAUCAUCGAGUGA [Fam2.1 aminoacylation ribozyme variant]",
    "self-aminoacylation": 3.5
  },
  {
    "seq.text": "AUUCACCUAGGUCAUCGUGUG [Fam2.2 aminoacylation ribozyme variant]",
    "self-aminoacylation": 0.932
  },
  {
    "seq.text": "CUACUUCAAACAAUCGGACUU [Fam1A.1 aminoacylation ribozyme variant]",
    "self-aminoacylation": 0.85
  }
]

Query string: # return recorded self-aminoacylation for input AUUACCCUAGUCACCGAGUGA [Fam2.1 aminoacylation ribozyme variant]
Result string: 3.27

Query string: # return recorded self-aminoacylation for input AUUACCCCGGUCAUCCAGUGA [Fam2.1 aminoacylation ribozyme variant]
Result string: 3.06

Query string: # return recorded self-aminoacylation for input CUUCACCUAGGUCAUCGGGUU [Fam2.2 aminoacylation ribozyme variant]
Result string: 3.77

---

- Test system: biotinyl-Leu-oxazolone
- protocol.notes: self-aminoacylation, catalytic enhancement (BLO) (fold over background); higher = more active; k-Seq, kA / k0A0; sequences stand for … in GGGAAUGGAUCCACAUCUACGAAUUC…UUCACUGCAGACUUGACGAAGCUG
Variants at the floor of the assay were thinned out.
observable: self-aminoacylation
// return a plain number; no unit text

[
  {
    "seq.text": "CUUCACCUAGGUCAUCGGGUG [Fam2.2 aminoacylation ribozyme variant]",
    "observable": "self-aminoacylation",
    "recorded.result": 9
  },
  {
    "seq.text": "AUUACCCAGGUCAUCGAGUGG [Fam2.1 aminoacylation ribozyme variant]",
    "observable": "self-aminoacylation",
    "recorded.result": 1.3
  },
  {
    "seq.text": "CCACACUUGAAGCAAUCGGUC [Fam1B.1 aminoacylation ribozyme variant]",
    "observable": "self-aminoacylation",
    "recorded.result": 0.735
  },
  {
    "seq.text": "CCCCAGUUCAAGCAAUCGGUC [Fam1B.1 aminoacylation ribozyme variant]",
    "observable": "self-aminoacylation",
    "recorded.result": 3.86
  },
  {
    "seq.text": "CCACACUCCAAGCAAUCGGCC [Fam1B.1 aminoacylation ribozyme variant]",
    "observable": "self-aminoacylation",
    "recorded.result": 1.28
  }
]

Query string: # return recorded self-aminoacylation for input AUUACACUGGUCAUCUAGUGA [Fam2.1 aminoacylation ribozyme variant]
Result string: 6.24

Query string: # return recorded self-aminoacylation for input AUUCACCUUGUUCAUCGGGUG [Fam2.2 aminoacylation ribozyme variant]
Result string: 3.38

Query string: # return recorded self-aminoacylation for input AUUCACCUAGGUGGUCGGGUG [Fam2.2 aminoacylation ribozyme variant]
Result string: 4.09

Query string: # return recorded self-aminoacylation for input AUUUCCCUGGUCAUCGAUUGA [Fam2.1 aminoacylation ribozyme variant]
Result string: 1.06

Query string: # return recorded self-aminoacylation for input CCACACUUCAAGCAGCCGGUC [Fam1B.1 aminoacylation ribozyme variant]
Result string: 1.82

Query string: # return recorded self-aminoacylation for input CCACACUUCAACCAAUCGUUC [Fam1B.1 aminoacylation ribozyme variant]
Result string: 0.562

Query string: # return recorded self-aminoacylation for input ACACACUUCAAGCAAUCUGUC [Fam1B.1 aminoacylation ribozyme variant]
Result string: 0.58

Query string: # return recorded self-aminoacylation for input CCACGCUUCAUGCAAUCGGUC [Fam1B.1 aminoacylation ribozyme variant]
Result string: 0.749

Query string: # return recorded self-aminoacylation for input AAGGUUGCUAAUAGUCGCAAA [Fam3.1 aminoacylation ribozyme variant]
Result string: 1.63

Query string: # return recorded self-aminoacylation for input AUGACCCAGGUCAUCGAGUGA [Fam2.1 aminoacylation ribozyme variant]
Result string: 5.25

Query string: # return recorded self-aminoacylation for input AGUCACCUAGGUCACCGGGUG [Fam2.2 aminoacylation ribozyme variant]
Result string: 4.38

Query string: # return recorded self-aminoacylation for input AUUCACCUAGGUCAUCGAGGG [Fam2.2 aminoacylation ribozyme variant]
Result string: 2.89

Query string: # return recorded self-aminoacylation for input CUACUUUAAACAAUCGGGCUG [Fam1A.1 aminoacylation ribozyme variant]
Result string: 1.07

// provenance: the supplement of paper PMC9233669
